System Under Test: Recombinant purified human JAK3 (Homo sapiens, UniProt P52333)
Test Method Notes: JAK3 kinase inhibitory activity, ADP-Glo kinase assay (Promega V9441)
Assay Conditions: ATP 5 uM, 4 ng JAK3 per reaction, 1 hour 30 °C, chemiluminescence
pIC50: −log10 of the molar value. Where a name gives a salt, the structure may show the parent alone.
Assign label 1 to entries whose pIC50 meets or exceeds 8; assign label 0 to the rest.

*Q* Record CCn1cc(Nc2nc(O[C@@H]3CCCN(C(=O)/C(C#N)=C/C4CC4)C3)c3c(C#N)c[nH]c3n2)cn1 ; criterion: pIC50 no lower than 8. Met?
*A* label 1

*Q* Record C=CC(=O)N1CCC[C@@H](Nc2nc(Nc3cnn(Cc4cccc(OC)c4)c3)nc3[nH]nc(Cl)c23)C1 ; criterion: pIC50 no lower than 8. Met?
*A* label 1

*Q* Record C=CC(=O)N1CC[C@@H](C)[C@@H](Nc2nc(Nc3cnn(C(F)F)c3)nc3[nH]nc(Cl)c23)C1 ; criterion: pIC50 no lower than 8. Met?
*A* label 0

*Q* Record C=CC(=O)N1CC[C@@H](C)[C@@H](Nc2nc(Nc3cnn(CC(F)F)c3)nc3[nH]nc(Cl)c23)C1 ; criterion: pIC50 no lower than 8. Met?
*A* label 1

*Q* Record C=CC(=O)N1CCC[C@@H](Nc2nc(Nc3cnn(CC(F)F)c3)nc3[nH]ncc23)C1 ; criterion: pIC50 no lower than 8. Met?
*A* label 1

*Q* Record C=CC(=O)N1CCC[C@@H](Nc2nc(Nc3cnn(CC#N)c3)nc3[nH]nc(Cl)c23)C1 ; criterion: pIC50 no lower than 8. Met?
*A* label 1

*Q* Record C=CC(=O)N1CCC[C@@H](Nc2nc(Nc3cnn(C(C)(C)C)c3)nc3[nH]nc(Cl)c23)C1 ; criterion: pIC50 no lower than 8. Met?
*A* label 1

*Q* Record C=CC(=O)N1CCC[C@@H](Nc2nc(Nc3cc(C)ns3)nc3[nH]cc(Cl)c23)C1 ; criterion: pIC50 no lower than 8. Met?
*A* label 1

*Q* Record C=CC(=O)N1CCC[C@@H](Nc2nc(Nc3cnn(C)c3)nc3[nH]ccc23)C1 ; criterion: pIC50 no lower than 8. Met?
*A* label 1

*Q* Record C=CC(=O)N1CCC[C@@H](Nc2nc(Nc3cnn(CCN4CCOCC4)c3)nc3[nH]cc(Cl)c23)C1 ; criterion: pIC50 no lower than 8. Met?
*A* label 1

*Q* Record C=CC(=O)N1CCC[C@@H](Sc2nc(Nc3cnn(CCC)c3)nc3[nH]nc(Cl)c23)C1 ; criterion: pIC50 no lower than 8. Met?
*A* label 1

*Q* Record C=CC(=O)N1CCC[C@@H](Nc2nc(Nc3cnn(C(F)F)c3)nc3[nH]ccc23)C1 ; criterion: pIC50 no lower than 8. Met?
*A* label 1

*Q* Record C=CC(=O)N1CCC[C@@H](Nc2nc(Nc3ccc(-n4nc(C)cc4C)cc3)nc3[nH]ccc23)C1 ; criterion: pIC50 no lower than 8. Met?
*A* label 1

*Q* Record CCn1cc(Nc2nc(O[C@@H]3CCCN(C(=O)/C(C#N)=C/C4CC4)C3)c3c(Cl)n[nH]c3n2)cn1 ; criterion: pIC50 no lower than 8. Met?
*A* label 0

*Q* Record C=CC(=O)N1CCC[C@@H](Nc2nc(Nc3cnn(C(C)(C)C)c3)nc3[nH]ncc23)C1 ; criterion: pIC50 no lower than 8. Met?
*A* label 1

*Q* Record C=CC(=O)N1CCC[C@@H](Nc2nc(Nc3cnn(CC)c3)nc3[nH]nc(Cl)c23)C1 [Example 91, hydrochloride] ; criterion: pIC50 no lower than 8. Met?
*A* label 1

*Q* Record C=CC(=O)N1CCC[C@@H](Sc2nc(Nc3cnn(CC)c3)nc3[nH]ccc23)C1 ; criterion: pIC50 no lower than 8. Met?
*A* label 1

*Q* Record C=CC(=O)N1CCC[C@@H](Nc2nc(Nc3cnn(CCN4CCOCC4)c3)nc3[nH]nc(Cl)c23)C1 ; criterion: pIC50 no lower than 8. Met?
*A* label 1

*Q* Record C=CC(=O)N1CCC[C@@H](Nc2nc(Nc3cnn(C4CCOCC4)c3)nc3[nH]nc(Cl)c23)C1 ; criterion: pIC50 no lower than 8. Met?
*A* label 1

*Q* Record CCn1cc(Nc2nc(N[C@H]3CN(C(=O)CCl)CC[C@H]3C)c3c(Cl)n[nH]c3n2)cn1 ; criterion: pIC50 no lower than 8. Met?
*A* label 1

*Q* Record C=CC(=O)Nc1cccc(Nc2nc(N[C@@H]3CCCN(C(=O)CC#N)C3)c3cc[nH]c3n2)c1 ; criterion: pIC50 no lower than 8. Met?
*A* label 0

*Q* Record C=CC(=O)N1CC[C@@H](C)[C@@H](Nc2nc(Nc3cnn(Cc4cccc(OC)c4)c3)nc3[nH]nc(Cl)c23)C1 ; criterion: pIC50 no lower than 8. Met?
*A* label 0

*Q* Record C/C=C/C(=O)N1CCC[C@@H](Nc2nc(Nc3ccc(N4CCN(C)CC4)cc3)nc3[nH]cc(Cl)c23)C1 ; criterion: pIC50 no lower than 8. Met?
*A* label 0

*Q* Record CCn1cc(Nc2nc(N[C@H]3CN(C(=O)/C(C#N)=C/C4CC4)CC[C@H]3C)c3c(Cl)n[nH]c3n2)cn1 ; criterion: pIC50 no lower than 8. Met?
*A* label 0

*Q* Record C=CC(=O)N1CCC[C@@H](Sc2nc(Nc3cnoc3)nc3[nH]nc(Cl)c23)C1 ; criterion: pIC50 no lower than 8. Met?
*A* label 0

*Q* Record CCn1cc(Nc2nc(O[C@@H]3CCCN(C(=O)/C(C#N)=C/C(C)C)C3)c3c(C#N)c[nH]c3n2)cn1 ; criterion: pIC50 no lower than 8. Met?
*A* label 1

====

System Under Test: Recombinant purified human JAK3 (Homo sapiens)
Sequence (P52333 1-1124): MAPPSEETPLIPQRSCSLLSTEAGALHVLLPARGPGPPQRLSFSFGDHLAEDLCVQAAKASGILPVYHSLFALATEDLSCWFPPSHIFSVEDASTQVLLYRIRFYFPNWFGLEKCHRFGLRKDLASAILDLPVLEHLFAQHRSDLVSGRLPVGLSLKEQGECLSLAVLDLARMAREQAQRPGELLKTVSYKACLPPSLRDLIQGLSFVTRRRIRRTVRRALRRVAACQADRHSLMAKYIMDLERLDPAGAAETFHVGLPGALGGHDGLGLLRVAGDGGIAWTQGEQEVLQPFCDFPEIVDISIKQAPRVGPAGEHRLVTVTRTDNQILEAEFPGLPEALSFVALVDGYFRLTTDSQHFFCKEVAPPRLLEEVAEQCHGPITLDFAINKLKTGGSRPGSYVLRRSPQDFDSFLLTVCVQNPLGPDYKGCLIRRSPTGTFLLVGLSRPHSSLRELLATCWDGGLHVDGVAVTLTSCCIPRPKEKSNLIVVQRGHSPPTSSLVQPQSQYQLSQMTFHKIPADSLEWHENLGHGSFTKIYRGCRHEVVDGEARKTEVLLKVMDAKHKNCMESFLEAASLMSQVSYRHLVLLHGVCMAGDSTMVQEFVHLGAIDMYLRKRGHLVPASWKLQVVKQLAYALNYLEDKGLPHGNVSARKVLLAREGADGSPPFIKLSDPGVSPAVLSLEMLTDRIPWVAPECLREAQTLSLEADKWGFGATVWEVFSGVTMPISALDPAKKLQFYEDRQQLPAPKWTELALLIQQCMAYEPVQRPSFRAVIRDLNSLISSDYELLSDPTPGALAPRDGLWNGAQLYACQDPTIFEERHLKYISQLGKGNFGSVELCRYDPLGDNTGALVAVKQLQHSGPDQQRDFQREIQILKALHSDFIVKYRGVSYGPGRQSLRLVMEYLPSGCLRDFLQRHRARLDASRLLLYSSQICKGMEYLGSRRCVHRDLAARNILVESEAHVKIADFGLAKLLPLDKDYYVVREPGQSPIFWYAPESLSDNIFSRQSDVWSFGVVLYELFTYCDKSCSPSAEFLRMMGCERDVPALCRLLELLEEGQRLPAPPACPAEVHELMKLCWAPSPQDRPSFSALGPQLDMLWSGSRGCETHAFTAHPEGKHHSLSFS
Test Method Notes: JAK3 kinase inhibitory activity, ADP-Glo kinase assay (Promega V9441)
Assay Conditions: ATP 5 uM, 4 ng JAK3 per reaction, 1 hour 30 °C, chemiluminescence
Readout Kind: pIC50
Expect pIC50 as a plain number equal to -log10 of the molar concentration.

*Q* So what does the record say about pIC50 for CCn1cc(Nc2nc(S[C@@H]3CCCN(C(=O)/C(C#N)=C/C4CC4)C3)c3c(Cl)n[nH]c3n2)cn1 [Example 181] ?
*A* 7.52

*Q* So what does the record say about pIC50 for C=CC(=O)N1CCC[C@@H](Nc2nc(Nc3cnn(CCN(CC)CC)c3)nc3[nH]cc(Cl)c23)C1 [Example 95] ?
*A* 9.30

*Q* So what does the record say about pIC50 for CCC#CC(=O)N1CCC[C@@H](Nc2nc(Nc3ccc(N4CCN(C)CC4)cc3)nc3[nH]cc(Cl)c23)C1 [Example 142] ?
*A* 7.65

*Q* So what does the record say about pIC50 for C=CC(=O)N1CCC[C@@H](Nc2nc(Nc3cnn(CC(=O)NC)c3)nc3[nH]nc(Cl)c23)C1 [Example 47] ?
*A* 8.96

*Q* So what does the record say about pIC50 for C=CC(=O)N1CCC[C@@H](Nc2nc(Nc3cnn(CC(F)F)c3)nc3[nH]cc(Cl)c23)C1 [Example 39] ?
*A* 10.00

*Q* So what does the record say about pIC50 for C=CC(=O)N1CCC[C@@H](Sc2nc(Nc3cnn(C4CC4)c3)nc3[nH]nc(Cl)c23)C1 [Example 110] ?
*A* 8.77

*Q* So what does the record say about pIC50 for CCn1cc(Nc2nc(N[C@@H]3CCCN(C(=O)/C(C#N)=C/C4CC4)C3)c3c(Cl)c[nH]c3n2)cn1 [Example 177] ?
*A* 9.40

*Q* So what does the record say about pIC50 for C=CC(=O)N1CC[C@@H](F)[C@@H](Nc2nc(Nc3cnn(CC)c3)nc3[nH]nc(Cl)c23)C1 [Example 193] ?
*A* 9.30

*Q* So what does the record say about pIC50 for C=CC(=O)N1CCC[C@@H](Nc2nc(Nc3cnn(C(F)F)c3)nc3[nH]nc(Cl)c23)C1 [Example 64] ?
*A* 9.15

*Q* So what does the record say about pIC50 for C=CC(=O)N1CCC[C@@H](Nc2nc(Nc3ccc(N4CCN(C)CC4)cc3)nc3[nH]nc(Cl)c23)C1 [Example 42] ?
*A* 8.29

*Q* So what does the record say about pIC50 for C=CC(=O)N1CCC[C@@H](Nc2nc(Nc3cnn(C4CC4)c3)nc3[nH]nc(Cl)c23)C1 [Example 49] ?
*A* 9.15

*Q* So what does the record say about pIC50 for CCn1cc(Nc2nc(N[C@H]3CN(C(=O)/C(C#N)=C/C4CC4)CC[C@H]3F)c3c(Cl)n[nH]c3n2)cn1 [Example 161] ?
*A* 8.30

*Q* So what does the record say about pIC50 for C=CC(=O)N1CCC[C@@H](Nc2nc(Nc3cnn(CC(F)F)c3)nc3[nH]nc(SC)c23)C1 [Example 190] ?
*A* 8.70

*Q* So what does the record say about pIC50 for C=CC(=O)N1CCC[C@@H](Nc2nc(Nc3cnn(C4CC4)c3)nc3[nH]cc(C#N)c23)C1 [Example 89] ?
*A* 9.86

*Q* So what does the record say about pIC50 for CC(C)/C=C(\C#N)C(=O)N1CCC[C@@H](Nc2nc(Nc3cnn(C4CC4)c3)nc3[nH]nc(Cl)c23)C1 [Example 162] ?
*A* 8.52
